Below: compounds with Ki recorded for Carbonic anhydrase 2 (Homo sapiens) in separate published works.
Please use T for Ki under 40 nM and F for everything else, ties included.

For orientation, consider the following solved cases.
CCOc1ccc(S(=O)(=O)N2CCN(C)CC2)cc1-c1nnc2c(n1)c(C)nn2-c1ccc(Cl)cc1; F
COc1cc2ccc(=O)oc2c(OC)c1OC; F
CC(=O)OC[C@H]1O[C@@H]([Se]c2ccc(S(N)(=O)=O)c(N)c2)[C@H](OC(C)=O)[C@@H](OC(C)=O)[C@H]1OC(C)=O; F
CC(C(=O)NO)N(Cc1ccccc1)S(=O)(=O)c1c(F)c(F)c(F)c(F)c1F (stereo unspecified); T
O=S(=O)(NO)c1ccc(Cl)cc1; T

Ask | Is Ki strictly under 40 nM for the entry NS(=O)(=O)c1ccc(CCNCc2ccco2)cc1 ?
Reply | F

Ask | Item: CNC(=O)COC(=O)[C@H](CCC(N)=O)/N=C(\S)Nc1ccc(S(N)(=O)=O)cc1
Reply | T

Ask | Item: NS(=O)(=O)Nc1ccc(O)cc1
Reply | T

Ask | Item: NS(=O)(=O)c1ccc(CNC(=O)c2ccc(-c3ccccc3)cc2)cc1
Reply | F

Ask | Item: CC(C)(C)n1c(=O)cc(-c2cc3ccccc3o2)[s+]1[O-] (stereo unspecified)
Reply | F
